Provenance of the data: PubChem BioAssay (NCI)

For each of the compounds below, state its growth.
System: SF-268 CNS
experiment description: NCI-60 one-dose screen, 48 h (100 = growth as untreated, 0 = no growth, -100 = all killed)
stated conditions: 10 µM unless noted
Compounds without any hit were thinned out: in the full panel of roughly 83,000, 20% have a hit. Active and inactive are the calls of the source. The calls were made as follows: active = growth percent below 10; inactive = the rest.

>>> test_result("O=C(Nc1ccc(-n2cc(-c3ccncc3)c(-c3ccc(O)c(Cl)c3)n2)cc1)Nc1cccc(Cl)c1Cl")
"82% (inactive)"
>>> test_result("Cc1ccc(/C=C2/C(=O)Nc3cc(Cl)c(-c4csc(N)n4)cc32)cc1")
"71.8% (inactive)"
>>> test_result("C=C1C(=O)O[C@H]2[C@H]1CC/C(C(=O)NCCOCCOCC(=O)Nc1ccc(OC)c(C(N)=O)c1O)=C\\CC[C@@]1(C)O[C@@H]21")
"89.4% (inactive)"
>>> test_result("S=c1ssnc1-c1ccccn1")
"24.9% (inactive)"
>>> test_result("CCCCC(=O)Nc1nc2ccc(SCCC)cc2s1")
"61.6% (inactive)"
>>> test_result("COc1ccc(-c2[nH]c3ccccc3c2/C=C(\\C#N)S(=O)(=O)c2ccccc2)cc1")
"45.1% (inactive)"
>>> test_result("COc1ccc(C(=O)NC(=O)Nc2ccc3c(c2)NC(=O)/C3=C\\c2[nH]c(C)c(C(=O)O)c2C)cc1")
"61.4% (inactive)"
>>> test_result("Cc1cn(-c2nc3c(c(NCc4ccccc4)n2)COCC3)c2cccc(C(N)=O)c12")
"76.9% [0.5 µM] (inactive)"

Look at each compound and report its growth.
1. CCOC(=O)NNc1nncc2ccccc12
2. CS(=O)(=O)Nc1cccc(-c2ccc3ncnc(Nc4ccc(F)c(Cl)c4)c3c2)c1

1. 107% (inactive)
2. 38.9% (inactive)

---

For each of the molecules below, state its growth.
Tested on: MCF7 breast
experiment description: NCI-60 one-dose screen, 48 h (100 = growth as untreated, 0 = no growth, -100 = all killed)
stated conditions: 10 µM unless noted
Compounds without any hit were thinned out: in the full panel of roughly 83,000, 20% have a hit. Active and inactive are the calls of the source. Rule for the calls: active = growth percent below 10; inactive = the rest.

Worked examples, 4 molecules total:
>>> test_result("O=C(O)c1cccc2oc(-c3ccccc3O)nc12")
"59.1% (inactive)"
>>> test_result("O=C(Nc1ccc(Cl)c(Cl)c1)Nc1ccc(Cl)c([N+](=O)[O-])c1")
"0.367% (active)"
>>> test_result("O=C(c1ccccc1)[C@H]1[C@@H]2CCCN2[C@]2(C(=O)Nc3ccc(F)cc32)[C@]12C(=O)Nc1ccccc12")
"82.5% (inactive)"
>>> test_result("O=C(COc1ccc(Cl)cc1Cl)N1N=C(c2ccc(Cl)cc2Cl)CC1(O)c1cc(F)c(Cl)cc1Cl (stereo not given)")
"95.6% (inactive)"

Input "COc1ccccc1S(=O)(=O)Nc1ccc2c3c(cc(-c4ccoc4)nc13)C(=O)N2C" , output reported growth.
35.5% (inactive)

---

Test system: RXF 393 renal
experiment description: NCI-60 one-dose screen, 48 h
stated conditions: 10 µM unless noted
This is part of a sample that, as a whole, favours compounds with a hit. Of some 83,000 tested, about 20% had one in any assay. Calls of active or inactive are those of the source. The calls were made as follows: active = growth percent below 10; inactive = the rest.
Output constraint: value belongs to active, inactive

>>> cat("CCOC(=O)c1cnc2c(OC)ccc(OC)c2c1Cl")
"inactive"
>>> cat("CCc1c2cc(Cl)ccc2n2cc(Cc3ccccc3)[nH]c(=O)c12")
"inactive"
>>> cat("C=C1C(=O)O[C@H]2[C@H]1CC/C(COC(=O)c1cc(OC)c(OC)c(OC)c1)=C\\CC[C@@]1(C)O[C@@H]21")
"active"

Entry "COc1ccc(C(=O)NC(=O)Nc2ccc3c(c2)NC(=O)/C3=C\c2[nH]c(C)c(C(=O)O)c2C)c(F)c1" : call = ?
active

Entry "N#Cc1c(N)nc(Cl)c(C#N)c1C(=O)c1ccccc1" : call = ?
active
